// provenance: ChEMBL document CHEMBL4619765

# experimental_details: Inhibition of complex 1 in bovine heart mitochondrial membranes in presence of NADH
# Set-up: species or system Bos taurus
pIC50: −log10 of the molar value.
readout_kind: pIC50

COc1cc2c(cc1OC)[C@@H]1C(=O)c3ccc4c(c3O[C@@H]1CO2)C[C@H](C(C)CO)O4 (mixture of isomers) | 6.64
COc1cc2c(cc1OC)[C@@H]1C(=O)c3ccc4c(c3O[C@@H]1CO2)C=CC(C)(C)O4 | 7.97
C=C(CO)[C@H]1Cc2c(ccc3c2O[C@@H]2COc4cc(OC)c(OC)cc4[C@]2(O)C3=O)O1 | 5.42
COc1cc2c(cc1OC)[C@@H]1[C@H](O)c3ccc4c(c3O[C@@H]1CO2)C[C@H](C(C)(O)CO)O4 (mixture of isomers) | 5.34
COc1cc2c(cc1OC)[C@]1(O)[C@H](O)c3ccc4c(c3O[C@@H]1CO2)C=CC(C)(C)O4 | 6.87
COc1cc2c(cc1OC)[C@]1(O)[C@H](O)c3ccc4c(c3O[C@@H]1CO2)C[C@H](C(C)CO)O4 (mixture of isomers) | 5.53
COc1cc2c(cc1OC)[C@@H]1C(=O)c3ccc4c(c3O[C@@H]1CO2)CCC(C)(CO)O4 (mixture of isomers) | 6.71
C=C(C)[C@H]1Cc2c(ccc3c2O[C@@H]2COc4cc(OC)c(OC)cc4[C@]2(O)C3=O)O1 | 6.89
